- assay-name: AUC (0 to infinity) in Sprague-Dawley rat at 20 umol/kg, po
- Type: ADME, organism-based
- Design: dose 20 umol/kg, time infinity, route oral
- condition-parameters: plasma
metric-name: AUC(0-inf) (µM·h)

{"columns": ["chemical-string", "metric-name", "unit-symbol", "val"],
 "data": [
  ["C[C@H]1[C@H](n2ccc(N)nc2=O)O[C@@](CO)(N=[N+]=[N-])[C@H]1O", "AUC(0-inf)", "µM·h", 2.87]
]}

* * *

- Test system: Rattus norvegicus
- assay-name: AUC (0 to infinity) in Sprague-Dawley rat assessed as 4'-azido-2'-deoxy-2'-methylcytidine level at 20 umol/kg, po
- Type: ADME, organism-based, Plasma
- Set-up: dose 20 umol/kg, route oral, time infinity
- condition-parameters: in vivo

{"columns": ["chemical-string", "AUC"],
 "data": [
  ["CC(C)[C@H](N)C(=O)O[C@H]1[C@@H](C)[C@H](n2ccc(N)nc2=O)O[C@@]1(CO)N=[N+]=[N-].O=C(O)C(F)(F)F", "4.06 µM·h"],
  ["CC(C)C(=O)OC[C@@]1(N=[N+]=[N-])O[C@@H](n2ccc(N)nc2=O)[C@H](C)[C@@H]1OC(=O)C(C)C", "12.9 µM·h"],
  ["CC(C)[C@H](N)C(=O)OC[C@@]1(N=[N+]=[N-])O[C@@H](n2ccc(N)nc2=O)[C@H](C)[C@@H]1OC(=O)[C@@H](N)C(C)C.O=C(O)C(F)(F)F", "1.35 µM·h"],
  ["CC(C)[C@H](N)C(=O)OC[C@@]1(N=[N+]=[N-])O[C@@H](n2ccc(N)nc2=O)[C@H](C)[C@@H]1O.O=C(O)C(F)(F)F", "1.68 µM·h"]
]}
